A compilation of published IC50 results with UniProt:P08581.

Solved cases below.
Molecule: Nc1ncnc(Oc2ccc(NC(=O)c3cnn(-c4ccccc4F)c3C(F)(F)F)cc2F)c1Cl
IC50: 0.5 to 5 µM

Molecule: Cc1c(C(=O)Nc2ccc(Oc3ccnc(N)c3Cl)c(F)c2)c(=O)n(-c2ccccc2)n1CC(C)(C)O
IC50: 0.054 µM

Molecule: COc1ccc(-n2ncc(C(=O)Nc3ccc(Oc4ccnc5[nH]c(=O)n(C(C)C)c45)c(F)c3)c2C(F)(F)F)nc1
IC50: > 5 µM

Molecule: Nc1ncnc(Oc2ccc(NC(=O)c3cn(-c4ccccc4)nn3)cc2F)c1Cl
IC50: > 5 µM

Molecule: CC(C)n1c(=O)[nH]c2nccc(Oc3ccc(NC(=O)c4cnn(-c5cc(Cl)ccn5)c4C(F)(F)F)cc3F)c21
IC50: > 5 µM

Molecule: Nc1nccc(Oc2ccc(NC(=O)c3cnn(-c4ccc(F)cn4)c3C(F)(F)F)cc2F)c1Cl
IC50: > 5 µM

Molecule: Nc1nccc(Oc2c(F)cc(NC(=O)c3cnn(-c4ncccn4)c3C(F)(F)F)cc2F)c1I
IC50: 0.5 to 5 µM

Molecule: Nc1nccc(Oc2c(F)cc(NC(=O)c3cnn(-c4ncccn4)c3C(F)(F)F)cc2F)c1C#CCO
IC50: 0.05 to 0.5 µM

For CC(C)n1c(=O)[nH]c2nccc(Oc3ccc(NC(=O)c4cnn(-c5ncccc5F)c4C(F)(F)F)cc3F)c21 the molecule record lists IC50 as 0.5 to 5 µM

For Nc1nccc(Oc2ccc(NC(=O)c3ccc(C(F)(F)F)n(-c4ccc(F)cc4)c3=O)cc2F)c1Cl the molecule record lists IC50 as 0.018 µM

For CCn1c(=O)[nH]c2nccc(Oc3ccc(NC(=O)c4ncn(-c5ccccc5)c4C(F)(F)F)cc3F)c21 the molecule record lists IC50 as > 5 µM

For CC(C)n1c(=O)[nH]c2nccc(Oc3ccc(NC(=O)c4cnn(-c5cncnc5)c4C(F)(F)F)cc3F)c21 the molecule record lists IC50 as > 5 µM

For N#Cc1c(Oc2c(F)cc(NC(=O)c3cnn(-c4ccccn4)c3C(F)(F)F)cc2F)ccnc1N the molecule record lists IC50 as 0.5 to 5 µM

For Nc1nccc(Oc2c(F)cc(NC(=O)c3cnn(-c4ncccc4Cl)c3C(F)(F)F)cc2F)c1C#CCO the molecule record lists IC50 as 0.05 to 0.5 µM

For CC(C)(O)C#Cc1c(Oc2c(F)cc(NC(=O)c3cnn(-c4ncccc4F)c3C(F)(F)F)cc2F)ccnc1N the molecule record lists IC50 as 0.05 to 0.5 µM

* * *

pIC50: −log10 of the molar value.
A compilation of published pIC50 results with Hepatocyte growth factor receptor (Homo sapiens, UniProt P08581).

Compound: CCOc1ccn(-c2ccc(F)cc2)c(=O)c1C(=O)Nc1ccc(Nc2ccc(O)c(-c3ccnc(N)n3)c2)cc1F
pIC50: 6.26

The reported pIC50 value, Hepatocyte growth factor receptor (Homo sapiens, UniProt P08581), for Nc1nccc(Oc2c(F)cc(NC(=O)c3cnn(-c4ccccc4)c3C(F)(F)F)cc2F)c1C#CCO reads 5.30 to 6.30

The reported pIC50 value, Hepatocyte growth factor receptor (Homo sapiens, UniProt P08581), for CC(C)n1c(=O)[nH]c2nccc(Oc3ccc(NC(=O)c4cnn(C5CCCOC5)c4C(F)(F)F)cc3F)c21 (stereo not shown) reads 5.30 to 6.30

The reported pIC50 value, Hepatocyte growth factor receptor (Homo sapiens, UniProt P08581), for Nc1nccc(Oc2c(F)cc(NC(=O)c3cnn(-c4ncccc4Cl)c3C(F)(F)F)cc2F)c1I reads 6.30 to 7.30

The reported pIC50 value, Hepatocyte growth factor receptor (Homo sapiens, UniProt P08581), for N#Cc1c(Oc2c(F)cc(NC(=O)c3cnn(-c4ncccc4F)c3C(F)(F)F)cc2F)ccnc1N reads 6.30 to 7.30

The reported pIC50 value, Hepatocyte growth factor receptor (Homo sapiens, UniProt P08581), for Nc1nccc(-c2cc(Oc3ccc(NC(=O)c4ccc(CO)n(-c5ccc(F)cc5)c4=O)cc3F)ccc2O)n1 reads 7.92

The reported pIC50 value, Hepatocyte growth factor receptor (Homo sapiens, UniProt P08581), for Nc1nccc(Oc2c(F)cc(NC(=O)c3cnn(-c4ncccc4F)c3C(F)(F)F)cc2F)c1I reads 6.30 to 7.30

* * *

A compilation of published IC50 results with UniProtKB P08581.

Solved cases below.
Molecule: Cn1c(=O)[nH]c2nccc(Oc3ccc(NC(=O)c4ncn(-c5ccccc5)c4C(F)(F)F)cc3F)c21
IC50: > 5 µM

Molecule: CCN1Cc2c(ccc(F)c2C#N)O[C@@H](C)COC(=O)c2cnn3ccc1nc23
IC50: 0.00093 µM

Molecule: Nc1nccc(Oc2ccc(NC(=O)c3cnn(-c4c(F)cccc4F)c3C(F)(F)F)cc2F)c1Cl
IC50: 0.5 to 5 µM

--- query ---
The reported IC50 value, UniProtKB P08581, for Cc1cccnc1-n1ncc(C(=O)Nc2ccc(Oc3ccnc(N)c3Cl)c(F)c2)c1C(F)(F)F reads 0.5 to 5 µM

* * *

A compilation of published IC50 results with Hepatocyte growth factor receptor (Homo sapiens, UniProt P08581).

Solved cases below.
Compound: Nc1nccc(Oc2ccc(NC(=O)c3ncn(-c4ccccc4)c3C(F)(F)F)cc2F)c1N
IC50: > 5 µM

Compound: CC(C)n1c(=O)[nH]c2nccc(Oc3ccc(NC(=O)c4cnn(-c5cc(C6CC6)ccn5)c4C(F)(F)F)cc3F)c21
IC50: 0.5 to 5 µM

Compound: O=C(Nc1ccc(Oc2ncnc(NC3CC3)c2Cl)c(F)c1)c1cnn(-c2ncccc2F)c1C(F)(F)F
IC50: > 5 µM

Compound: C#Cc1c(Oc2c(F)cc(NC(=O)c3cnn(-c4ccccn4)c3C(F)(F)F)cc2F)ccnc1N
IC50: 0.5 to 5 µM

Compound: CCc1c(C(=O)Nc2ccc(Oc3ccnc(N)c3I)c(F)c2)cnn1-c1ncccc1F
IC50: 0.5 to 5 µM

The reported IC50 value, Hepatocyte growth factor receptor (Homo sapiens, UniProt P08581), for Nc1nccc(-c2cc(Oc3ccc(NC(=O)C4(C(=O)Nc5ccc(F)cc5)CC4)cc3F)ccc2O)n1 reads 0.071 µM

The reported IC50 value, Hepatocyte growth factor receptor (Homo sapiens, UniProt P08581), for Nc1ncnc(Oc2ccc(NC(=O)c3cnn(-c4ccncn4)c3C(F)(F)F)cc2F)c1Cl reads > 5 µM

* * *

A compilation of published IC50 results with Hepatocyte growth factor receptor (Homo sapiens, UniProt P08581).

Solved cases below.
Molecule: Cn1cc(-n2ncc(C(=O)Nc3ccc(Oc4ncnc(N)c4Cl)c(F)c3)c2C(F)(F)F)cn1
IC50: > 5 µM
--
Molecule: CCc1cccnc1-n1ncc(C(=O)Nc2ccc(Oc3ccnc4[nH]c(=O)n(C(C)C)c34)c(F)c2)c1C(F)(F)F
IC50: 0.5 to 5 µM
--
Molecule: C#Cc1c(Oc2c(F)cc(NC(=O)c3cnn(-c4ncccc4Cl)c3C(F)(F)F)cc2F)ccnc1N
IC50: 0.05 to 0.5 µM
--
Molecule: CCOc1ccn(-c2ccc(F)cc2)c(=O)c1C(=O)Nc1ccc(-c2ccc3snc(N)c3c2)c(F)c1
IC50: 6.03 µM
--
Molecule: CC(C)n1c(=O)[nH]c2nccc(Oc3ccc(NC(=O)c4cn(-c5ccccc5)nn4)cc3F)c21
IC50: > 5 µM

The reported IC50 value, Hepatocyte growth factor receptor (Homo sapiens, UniProt P08581), for CC(C)n1c(=O)[nH]c2nccc(Oc3ccc(NC(=O)c4cnn(-c5ccc(Cl)cn5)c4C(F)(F)F)cc3F)c21 reads > 5 µM

The reported IC50 value, Hepatocyte growth factor receptor (Homo sapiens, UniProt P08581), for CC(C)n1c(=O)[nH]c2nccc(Oc3ccc(NC(=O)Cc4cnn(-c5ccccc5)c4C(F)(F)F)cc3F)c21 reads 0.5 to 5 µM

* * *

pIC50: −log10 of the molar value.
A compilation of published pIC50 results with Hepatocyte growth factor receptor (Homo sapiens, UniProt P08581).

Molecule: Cc1ccc(C(=O)Nc2ccc(Oc3ccnc(NC(=O)C4CC4)c3Cl)c(F)c2)c(=O)n1-c1ccc(F)cc1
pIC50: 7.92

Molecule: Nc1nccc(Oc2c(F)cc(NC(=O)c3cnn(-c4ncccn4)c3C(F)(F)F)cc2F)c1Cl
pIC50: 5.30 to 6.30

Molecule: Nc1nccc(Oc2ccc(NC(=O)c3cnn(-c4ncc(F)cc4F)c3C(F)(F)F)cc2F)c1Cl
pIC50: < 5.30

The reported pIC50 value, Hepatocyte growth factor receptor (Homo sapiens, UniProt P08581), for CCc1c(C(=O)Nc2ccc(Oc3ccnc(N)c3Cl)c(F)c2)cnn1-c1ccccc1 reads 5.30 to 6.30

The reported pIC50 value, Hepatocyte growth factor receptor (Homo sapiens, UniProt P08581), for Cc1ccc(C(=O)Nc2ccc(Oc3ccnc(N(C(=O)C4CC4)C(=O)C4CC4)c3Cl)c(F)c2)c(=O)n1-c1ccc(F)cc1 reads 5.45

The reported pIC50 value, Hepatocyte growth factor receptor (Homo sapiens, UniProt P08581), for Nc1cc(Oc2ccc(NC(=O)c3cnn(-c4ccccc4)c3C(F)(F)F)cc2F)ccn1 reads < 5.30

The reported pIC50 value, Hepatocyte growth factor receptor (Homo sapiens, UniProt P08581), for CC(C)n1c(=O)[nH]c2nccc(Oc3ccc(NC(=O)c4cnn(-c5ccccc5Cl)c4C(F)(F)F)cc3F)c21 reads 5.30 to 6.30

The reported pIC50 value, Hepatocyte growth factor receptor (Homo sapiens, UniProt P08581), for CC(C)n1c(=O)[nH]c2nccc(Oc3ccc(NC(=O)c4cnn(-c5cccc6ccccc56)c4C(F)(F)F)cc3F)c21 reads 5.30 to 6.30

The reported pIC50 value, Hepatocyte growth factor receptor (Homo sapiens, UniProt P08581), for Nc1nccc(Oc2c(F)cc(NC(=O)c3cnn(-c4ncccc4F)c3C(F)(F)F)cc2F)c1C#CCO reads 6.30 to 7.30

The reported pIC50 value, Hepatocyte growth factor receptor (Homo sapiens, UniProt P08581), for C=CC(=O)N(C(=O)C=C)c1nccc(Oc2ccc(NC(=O)c3ncn(-c4ccccc4)c3C(F)(F)F)cc2F)c1Cl reads < 5.30
